Reference source: patent US20110045092A1

Target or system: β-CN (Bos taurus, UniProt P02666)
Construct: β-CN from bovine milk (C6905, purity 90%); purchased Sigma-Aldrich Israel Ltd. C6905; host or cells: bovine milk
Sequence (P02666 16-224): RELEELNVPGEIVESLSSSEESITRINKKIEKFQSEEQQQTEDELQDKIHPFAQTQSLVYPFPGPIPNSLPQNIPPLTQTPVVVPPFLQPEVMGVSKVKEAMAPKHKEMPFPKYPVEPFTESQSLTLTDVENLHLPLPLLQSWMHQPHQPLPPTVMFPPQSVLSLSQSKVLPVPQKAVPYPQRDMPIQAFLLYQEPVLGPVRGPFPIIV
Protocol notes: Mitoxantrone fluorescence quenching by β-CN
Format: binding, bovine
Measurement context: mitoxantrone fluorescence quenched by β-CN; 42 μM mitoxantrone, β-CN 0.1-3.8 mg/ml; excitation 609 nm, emission 675 nm; model fit; read-out: Calculated Kd
pKd: −log10 of the molar value. Where a name gives a salt, the structure may show the parent alone.

# Compound, pKd
measured = [
    ("O=C1c2c(O)ccc(O)c2C(=O)c2c(NCCNCCO)ccc(NCCNCCO)c21 [mitoxantrone, Mitoxantrone dihydrochloride]", 6.14),
]

###

Target or system: β-CN (Bos taurus, UniProt P02666)
Construct: β-CN from bovine milk (C6905, purity 90%); purchased Sigma-Aldrich Israel Ltd. C6905; host or cells: bovine milk
Sequence (P02666 16-224): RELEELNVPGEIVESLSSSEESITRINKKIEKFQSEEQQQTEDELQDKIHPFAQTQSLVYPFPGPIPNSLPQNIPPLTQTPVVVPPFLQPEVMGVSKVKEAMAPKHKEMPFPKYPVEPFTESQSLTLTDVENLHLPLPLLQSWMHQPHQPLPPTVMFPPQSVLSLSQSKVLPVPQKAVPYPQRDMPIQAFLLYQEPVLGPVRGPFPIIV
Protocol notes: Trp 143 fluorescence quenching of β-CN by drug
Format: binding, bovine
Measurement context: Trp 143 of β-CN quenched by drug; 1 mg/ml β-CN in PBS pH 7.0; excitation 287 nm, emission 332 nm; model fit; read-out: Calculated Kd
pKd: −log10 of the molar value. Counter-ions that a name gives are not always drawn.

# Compound, pKd
records = [
    ("O=C1c2c(O)ccc(O)c2C(=O)c2c(NCCNCCO)ccc(NCCNCCO)c21 [mitoxantrone, Mitoxantrone dihydrochloride]", 5.07),
]
